Source: patent US20240174714A1

- assay.info: Cytotoxicity assay (Alamar Blue) on L6-cells
- Type: cell-based, rat
- condition.details: rat
Square brackets hold non-standard residues; d marks the D form. Peptide text beside a SMILES is read from it. * marks the point of attachment. Adamantane1carbonyl = O=C(C12CC3CC(CC(C3)C1)C2)*; NH((S)CH(Me)CH2NMe2) = C[C@@H](CN(C)C)N*; NH(1-CH2NMe2-cBu) = CN(C)CC1(N*)CCC1; Benzoyl(4-OMe) = COc1ccc(C(=O)*)cc1; Gly(octyl) = CCCCCCCC[C@H](N)C(=O)O; Oxazole4CO(2-Me) = Cc1nc(C(=O)*)co1; hCha = N[C@@H](CCC1CCCCC1)C(=O)O; Aoc(2) = CCCCCC[C@H](N)C(=O)O; X9 = O=C(c1ccc2ocnc2c1)*; Aib = CC(C)(N)C(=O)O; X1 = COCCN(CCN*)CCOC; βAla = NCCC(=O)O; tBu = CC(C)(C)*
Label criterion met when IC50 at 68 h is strictly below 1000 nM; at or above that, label criterion not met.

compound	assigned.category
CCCCCC[C@H](NC(=O)[C@@H]1CCCN1C(=O)c1coc(C)n1)C(=O)N[C@@H](CC(C)C)C(=O)NC(C)(C)C(=O)N[C@@H](CC(C)C)C(=O)N[C@@H](CC(C)C)C(=O)NC(C)(C)C(=O)NC(C)(C)C(=O)NCCC(=O)NC1(CN(C)C)CCC1 [Compound 6894] ({Oxazole4CO(2-Me)}-P[Aoc(2)]L[Aib]LL[Aib][Aib][βAla]-{NH(1-CH2NMe2-cBu)})	criterion not met
COCCN(CCNC(=O)CCNC(=O)C(C)(C)NC(=O)C(C)(C)NC(=O)[C@H](CC(C)C)NC(=O)[C@H](CC(C)C)NC(=O)C(C)(C)NC(=O)[C@H](CC(C)C)NC(=O)[C@H](CCC1CCCCC1)NC(=O)[C@@H]1CCCN1C(=O)c1coc(C)n1)CCOC [Compound 6791] ({Oxazole4CO(2-Me)}-P[hCha]L[Aib]LL[Aib][Aib][βAla]-X1)	criterion not met
CCCCCCCC[C@H](NC(=O)[C@@H]1CCCN1C(=O)c1ccc(OC)cc1)C(=O)N[C@@H](CC(C)C)C(=O)NC(C)(C)C(=O)N[C@@H](CC(C)C)C(=O)N[C@@H](CC(C)C)C(=O)NC(C)(C)C(=O)NC(C)(C)C(=O)NCCC(=O)N[C@@H](C)CN(C)C [Compound 5912] ({Benzoyl(4-OMe)}-P[Gly(octyl)]L[Aib]LL[Aib][Aib][βAla]-{NH((S)CH(Me)CH2NMe2)})	criterion met
CCCCCCCC[C@H](NC(=O)[C@@H]1CCCN1C(=O)C12CC3CC(CC(C3)C1)C2)C(=O)N[C@@H](CC(C)C)C(=O)NC(C)(C)C(=O)N[C@@H](CC(C)C)C(=O)N[C@@H](CC(C)C)C(=O)NC(C)(C)C(=O)NC(C)(C)C(=O)NCCC(=O)N[C@@H](C)CN(C)C [Compound 5770] (Adamantane1carbonyl-P[Gly(octyl)]L[Aib]LL[Aib][Aib][βAla]-{NH((S)CH(Me)CH2NMe2)})	criterion met
CCCCCCCC[C@H](NC(=O)[C@@H]1CCCN1C(=O)c1ccc2ocnc2c1)C(=O)N[C@@H](CC(C)C)C(=O)NC(C)(C)C(=O)N[C@@H](CC(C)C)C(=O)N[C@@H](CC(C)C)C(=O)NC(C)(C)C(=O)NC(C)(C)C(=O)NCCC(=O)N[C@@H](C)CN(C)C [Compound 5937] (X9-P[Gly(octyl)]L[Aib]LL[Aib][Aib][βAla]-{NH((S)CH(Me)CH2NMe2)})	criterion not met
Cc1nc(C(=O)N2CCC[C@H]2C(=O)N[C@@H](COC(C)(C)C)C(=O)N[C@@H](CC(C)C)C(=O)NC(C)(C)C(=O)N[C@@H](CC(C)C)C(=O)N[C@@H](CC(C)C)C(=O)NC(C)(C)C(=O)NC(C)(C)C(=O)NCCC(=O)NC2(CN(C)C)CCC2)co1 [Compound 6780] ({Oxazole4CO(2-Me)}-PS(tBu)L[Aib]LL[Aib][Aib][βAla]-{NH(1-CH2NMe2-cBu)})	criterion not met
